- measuredTarget: Calcitonin gene-related peptide type 1 receptor (Homo sapiens, UniProt O60894+Q16602)
- Sequence (Q16602 whole entry, one chain of several): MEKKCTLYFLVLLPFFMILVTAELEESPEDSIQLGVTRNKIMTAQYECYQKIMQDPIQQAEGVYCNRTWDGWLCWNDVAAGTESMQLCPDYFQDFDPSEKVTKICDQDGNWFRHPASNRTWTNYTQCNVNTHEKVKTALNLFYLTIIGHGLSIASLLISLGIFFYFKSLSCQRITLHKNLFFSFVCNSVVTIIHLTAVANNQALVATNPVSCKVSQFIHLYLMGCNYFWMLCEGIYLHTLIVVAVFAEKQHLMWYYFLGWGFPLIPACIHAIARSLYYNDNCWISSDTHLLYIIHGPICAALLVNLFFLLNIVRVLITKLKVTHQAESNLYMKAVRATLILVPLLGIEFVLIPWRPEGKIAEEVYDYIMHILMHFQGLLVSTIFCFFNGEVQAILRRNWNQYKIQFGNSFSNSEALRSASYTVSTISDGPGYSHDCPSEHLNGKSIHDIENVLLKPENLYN
- assayText: Activity at CGRP receptor assessed as inhibition of CGRP-stimulated cAMP production
pIC50: −log10 of the molar value.
Short version: pIC50 at least 7 is true (1), less is false (0).

// below: answered compounds
O=C(N[C@@H]1N=C(c2ccccc2)c2ccccc2N(CC(F)(F)F)C1=O)N1CCC(n2c(=O)[nH]c3ncncc32)CC1: false (0)
O=C(N[C@@H]1N=C(c2ccccc2)c2ccccc2N(CC(F)(F)F)C1=O)N1CCC(n2c(=O)[nH]c3ccc(F)cc32)CC1: false (0)

Q: Exam item: decide whether the reported pIC50 for O=C(N[C@@H]1N=C(c2ccccc2)c2ccccc2N(CC(F)(F)F)C1=O)N1CCC(n2cc(-c3cccc(F)c3)nc2O)CC1 is at least 7.
Result: true (1)

Q: Exam item: decide whether the reported pIC50 for O=C(N[C@@H]1N=C(c2ccccc2)c2ccccc2N(CC(F)(F)F)C1=O)N1CCC(N2CC(c3ccncc3)NC2=O)CC1 (some centres undefined) is at least 7.
Result: false (0)

Q: Exam item: decide whether the reported pIC50 for O=C(N[C@@H]1N=C(c2ccccc2)c2ccccc2N(CC(F)(F)F)C1=O)N1CCC(n2c(=O)[nH]c3ncccc32)CC1 is at least 7.
Result: true (1)

Q: Exam item: decide whether the reported pIC50 for O=C(N[C@@H]1N=C(c2ccccc2)c2ccccc2N(CC(F)(F)F)C1=O)N1CCC(N2CC(c3ccccc3)NC2=O)CC1 (some centres undefined) is at least 7.
Result: false (0)

Q: Exam item: decide whether the reported pIC50 for O=C(N[C@@H]1N=C(c2ccccc2)c2ccccc2N(CC(F)(F)F)C1=O)N1CCC(n2c(=O)[nH]c3cnccc32)CC1 is at least 7.
Result: false (0)

Q: Exam item: decide whether the reported pIC50 for COc1ccc(-c2cn(C3CCN(C(=O)N[C@@H]4N=C(c5ccccc5)c5ccccc5N(CC(F)(F)F)C4=O)CC3)c(=O)[nH]2)cc1 is at least 7.
Result: false (0)

Q: Exam item: decide whether the reported pIC50 for O=C(N[C@@H]1N=C(c2ccccc2)c2ccccc2N(CC(F)(F)F)C1=O)N1CCC(N2Cc3ccccc3NC2=O)CC1 is at least 7.
Result: true (1)

Q: Exam item: decide whether the reported pIC50 for O=C(N[C@@H]1N=C(c2ccccc2)c2ccccc2N(CC(F)(F)F)C1=O)N1CCC(n2c(=O)[nH]c3nccnc32)CC1 is at least 7.
Result: false (0)

Q: Exam item: decide whether the reported pIC50 for O=C(N[C@@H]1N=C(c2ccccc2)c2ccccc2N(CC(F)(F)F)C1=O)N1CCC(N2Cc3cnccc3NC2=O)CC1 is at least 7.
Result: false (0)

Q: Exam item: decide whether the reported pIC50 for O=C(N[C@@H]1N=C(c2ccccc2)c2ccccc2N(CC(F)(F)F)C1=O)N1CCC(N2Cc3ccncc3NC2=O)CC1 is at least 7.
Result: false (0)

Q: Exam item: decide whether the reported pIC50 for O=C(N[C@@H]1N=C(c2ccccc2)c2ccccc2N(CC(F)(F)F)C1=O)N1CCC(n2cc[nH]c2=O)CC1 is at least 7.
Result: false (0)

Q: Exam item: decide whether the reported pIC50 for COc1cccc(-c2cn(C3CCN(C(=O)N[C@@H]4N=C(c5ccccc5)c5ccccc5N(CC(F)(F)F)C4=O)CC3)c(O)n2)c1 is at least 7.
Result: true (1)

Q: Exam item: decide whether the reported pIC50 for O=C(N[C@@H]1N=C(c2ccccc2)c2ccccc2N(CC(F)(F)F)C1=O)N1CCC(N2Cc3ncccc3NC2=O)CC1 is at least 7.
Result: false (0)

Q: Exam item: decide whether the reported pIC50 for O=C(N[C@@H]1N=C(c2ccccc2)c2ccccc2N(CC(F)(F)F)C1=O)N1CCC(n2c(=O)[nH]c3cccnc32)CC1 is at least 7.
Result: false (0)
